# measured_target: ICAM-1 extracellular domain (C-terminal His) (Homo sapiens, UniProt P05362 SEQ:1-453)
# Sequence (P05362 28-480): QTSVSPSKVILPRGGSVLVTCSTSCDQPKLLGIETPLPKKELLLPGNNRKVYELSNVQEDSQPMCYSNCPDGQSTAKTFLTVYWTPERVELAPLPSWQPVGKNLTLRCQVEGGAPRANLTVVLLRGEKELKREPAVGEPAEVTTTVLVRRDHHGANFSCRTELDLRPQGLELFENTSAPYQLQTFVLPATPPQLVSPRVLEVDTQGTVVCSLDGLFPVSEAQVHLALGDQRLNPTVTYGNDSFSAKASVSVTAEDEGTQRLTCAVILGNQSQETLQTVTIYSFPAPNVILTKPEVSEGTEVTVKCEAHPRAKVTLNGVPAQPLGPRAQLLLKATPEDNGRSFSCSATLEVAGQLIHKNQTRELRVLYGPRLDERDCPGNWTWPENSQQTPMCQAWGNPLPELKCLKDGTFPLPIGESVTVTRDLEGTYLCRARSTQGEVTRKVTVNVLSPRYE
# protocol: SPR; aptamer immobilized on gold chip; 250 nM ICAM-1
# condition_context: tags: C-terminal His6; Ray-Biotech 228-21751-2
Kd reference
measurement_name: Kd (nM)

binder="Nas.R-8 (ssRNA, 2'-F pyrimidines (all C and U)) RNA: GGGUGCAUCGUUUACGCGUAAAAAUUAAAGAGAUUAAGGUCCUUAAGCAGUUUUGUCCUGCUGCUGAGGAAGGAUAUGAG" measurement_name=Kd numeric_readout=28.4
binder="Nas.R-4 (ssRNA, 2'-F pyrimidines (all C and U)) RNA: GGGUGCAUCGUUUACGCGCAACAUAAAAAUUUAAAGUGCUCAGUUGUCAAUCUAUGACUGCUGCUGAGGAAGGAUAUGAG" measurement_name=Kd numeric_readout=44.3
binder="Nas.R-2 (ssRNA, 2'-F pyrimidines (all C and U)) RNA: GGGUGCAUCGUUUACGCAGAUAGCAGCAGGAAUCAAGCGGUAGGAGUCUAGCAGAAGCUGCUGCUGAGGAAGGAUAUGAG" measurement_name=Kd numeric_readout=70.2
binder="Nas.R-1 (ssRNA, 2'-F pyrimidines (all C and U)) RNA: GGGUGCAUCGUUUACGCGAUUAGUCUGAUAAACAAAAAGAUUUCGCUAAAAAUCAAUCUGCUGCUGAGGAAGGAUAUGAG" measurement_name=Kd numeric_readout=64.4
